# Target Or Test System: hPAD4 enzyme (Homo sapiens (Human), UniProt Q9UM07)
# Sequence (Q9UM07 whole entry): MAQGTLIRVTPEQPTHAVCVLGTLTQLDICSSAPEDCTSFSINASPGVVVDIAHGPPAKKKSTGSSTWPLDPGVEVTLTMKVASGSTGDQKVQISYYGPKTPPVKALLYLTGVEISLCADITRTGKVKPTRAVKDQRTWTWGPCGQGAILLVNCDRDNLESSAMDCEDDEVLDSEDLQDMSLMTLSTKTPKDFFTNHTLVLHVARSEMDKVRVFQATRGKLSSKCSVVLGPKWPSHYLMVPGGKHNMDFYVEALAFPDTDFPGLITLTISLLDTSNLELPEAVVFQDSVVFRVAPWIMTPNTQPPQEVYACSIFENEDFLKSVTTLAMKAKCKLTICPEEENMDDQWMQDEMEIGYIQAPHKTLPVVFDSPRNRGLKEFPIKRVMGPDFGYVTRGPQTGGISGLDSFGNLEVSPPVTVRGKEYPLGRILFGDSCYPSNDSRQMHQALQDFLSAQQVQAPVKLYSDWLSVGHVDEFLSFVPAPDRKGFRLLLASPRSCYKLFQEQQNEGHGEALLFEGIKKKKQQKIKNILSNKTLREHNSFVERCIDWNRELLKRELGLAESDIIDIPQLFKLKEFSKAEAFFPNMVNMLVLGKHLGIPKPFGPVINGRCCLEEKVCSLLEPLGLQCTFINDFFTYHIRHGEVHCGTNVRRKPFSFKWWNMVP
# Measurement Notes: RFMS2 assay (RapidFire mass spectrometry, TSTGGRQGSHH peptide substrate)
# Assay type: biochemical
# Applied Conditions: 35 nM recombinant human PAD4, 500 μM TSTGGRQGSHH peptide, 30 minutes at room temperature; read-out: RFMS 2 IC50
pIC50: −log10 of the molar value.
Measurement Label: pIC50

[[record]]
mol = "C[C@@H](N)CN1CCc2cc3c(cc2C1=O)nc(-c1cc2ccc(C#N)cc2n1CC1CC1)n3C"
reading = "6.30 to 7.00"

[[record]]
mol = "Cc1cc(Cn2c(-c3nc4cc5c(cc4n3C)CCN(C[C@H](N)CF)C5=O)cc3ccccc32)on1"
reading = "6.30 to 7.00"

[[record]]
mol = "Cc1ccc2cc(-c3nc4cc5c(cc4n3C)CCN(C[C@@H](C)N)C5=O)n(CC3CC3)c2c1"
reading = "6.30 to 7.00"

[[record]]
mol = "C[C@@H](N)CN1CCc2cc3c(cc2C1=O)nc(-c1cc2ccncc2n1CC1CC1)n3C"
reading = "< 6.00"

[[record]]
mol = "Cc1nncn1CCOc1cccc2cc(-c3nc4cc5c(cc4n3C)CCN(C[C@H](N)CF)C5=O)n(CC3CC3)c12"
reading = "6.30 to 7.00"

[[record]]
mol = "COc1ccc2cc(-c3nc4cc5c(cc4n3C)CCN(C[C@@H](C)N)C5=O)n(CC3CC3)c2n1"
reading = "6.30 to 7.00"

[[record]]
mol = "C[C@@H](N)CN1CCc2cc3c(cc2C1=O)nc(-c1cc2ccccc2n1CC1CC1)n3C"
reading = "6.30 to 7.00"

[[record]]
mol = "COc1cccc2cc(-c3nc4cc5c(cc4n3C)CCN(C[C@H]3COCCN3)C5=O)n(CC3CC3)c12"
reading = "6.00 to 6.30"

[[record]]
mol = "Cc1nc(C)n(CCOc2cccc3cc(-c4nc5cc6c(cc5n4C)CCN(C[C@H](N)CF)C6=O)n(CC4CC4)c23)n1"
reading = "6.30 to 7.00"

[[record]]
mol = "Cn1c(-c2cc3cccc(OC[C@H]4CNCCO4)c3n2CC2CC2)nc2cc3c(cc21)CCN(C[C@H](N)CF)C3=O"
reading = "6.00 to 6.30"

[[record]]
mol = "COC(=O)N[C@@H](C)COc1cccc2cc(-c3nc4cc5c(cc4n3C)CCN(C[C@H](N)CF)C5=O)n(CC3CC3)c12"
reading = "6.30 to 7.00"

[[record]]
mol = "Cc1nnc(COc2cccc3cc(-c4nc5cc6c(cc5n4C)CCN(C[C@H](N)CF)C6=O)n(CC4CC4)c23)o1"
reading = "6.30 to 7.00"

[[record]]
mol = "COc1cccc2cc(-c3nc4cc5c(cc4n3C)CCN(C[C@H](N)CF)C5=O)n(Cc3ccc(C)o3)c12"
reading = "6.30 to 7.00"

[[record]]
mol = "CN(C)c1cccc2cc(-c3nc4cc5c(cc4n3C)CCN(C[C@H](N)CF)C5=O)n(CC3CC3)c12"
reading = "< 6.00"

[[record]]
mol = "COCCn1c(-c2nc3cc4c(cc3n2C)CCN(C[C@H](N)CF)C4=O)cc2ccnc(OC)c21"
reading = "< 6.00"

[[record]]
mol = "Cc1ncnn1CCOc1cccc2cc(-c3nc4cc5c(cc4n3C)CCN(C[C@H](N)CF)C5=O)n(CC3CC3)c12"
reading = "6.30 to 7.00"

[[record]]
mol = "COc1cccc2cc(-c3nc4cc5c(cc4n3C)CCN(C[C@H]3COCCN3)C5=O)n(Cc3ncco3)c12"
reading = "6.30 to 7.00"

[[record]]
mol = "Cn1c(-c2cc3cccc(OCCc4cc[nH]n4)c3n2CC2CC2)nc2cc3c(cc21)CCN(C[C@H](N)CF)C3=O"
reading = "7.00 to 7.96"

[[record]]
mol = "Cn1c(-c2cc3cccc(OCCO)c3n2Cc2ccno2)nc2cc3c(cc21)CCN(C[C@H](N)CF)C3=O"
reading = "6.30 to 7.00"

[[record]]
mol = "COc1cccc2cc(-c3nc4cc5c(cc4n3C)CCN(C[C@H](N)CF)C5=O)n(Cc3nccs3)c12"
reading = "6.30 to 7.00"

[[record]]
mol = "Cn1c(-c2cc3cccc(OCC4CNC4)c3n2CC2CC2)nc2cc3c(cc21)CCN(C[C@H](N)CF)C3=O"
reading = "6.30 to 7.00"

[[record]]
mol = "C[C@H](CCO)Oc1cccc2cc(-c3nc4cc5c(cc4n3C)CCN(C[C@H](N)CF)C5=O)n(CC3CC3)c12"
reading = "6.30 to 7.00"

[[record]]
mol = "COc1cccc2cc(-c3nc4cc5c(cc4n3C)CCN(C[C@H](N)CF)C5=O)n(C[C@@H]3CCCO3)c12"
reading = "6.30 to 7.00"

[[record]]
mol = "COc1cccc2cc(-c3nc4cc5c(c(F)c4n3C)CCN(C[C@H](N)CF)C5=O)n(CC3CC3)c12"
reading = "6.30 to 7.00"

[[record]]
mol = "CCn1c(-c2nc3cc4c(cc3n2C)CCN(C[C@H](N)CF)C4=O)cc2cccc(OC)c21"
reading = "6.00 to 6.30"

[[record]]
mol = "COc1cccc2cc(-c3nc4cc5c(cc4n3C)CCN(C[C@H](N)CF)C5=O)n(Cc3cccnn3)c12"
reading = "6.30 to 7.00"

[[record]]
mol = "CN(C)CCOc1cccc2cc(-c3nc4cc5c(cc4n3C)CCN(C[C@H](N)CF)C5=O)n(CC3CC3)c12"
reading = "< 6.00"

[[record]]
mol = "C[C@H](COc1cccc2cc(-c3nc4cc5c(cc4n3C)CCN(C[C@H](N)CF)C5=O)n(CC3CC3)c12)n1ccnc1"
reading = "6.30 to 7.00"

[[record]]
mol = "C[C@@H](N)CN1CCc2cc3c(cc2C1=O)nc(-c1cc2ccccc2n1CCC1CC1)n3C"
reading = "6.30 to 7.00"


The measured values listed here are drawn from patent US20250346592A1.
